The following variants are shown together with reported protein stability index values.
B1: MFF (parent)
chain: DDLTVVDAASLRRQIIKLNRRLQL

# Variants of: B1
# method.description: protein stability index of a GFP-peptide fusion (GPS, HEK-293T) (PSI 1-6); higher = more stable;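 also: lentivirally expressed fusions sorted by FACS into six bins by GFP to DsRed ratio, PSI derived from sequencing read proportions per bin multiplied by bin number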
# protocol.conditions: c terminus: a fixed tail appended
The response must contain the number and no unit.

// known answers, use as guide
D7F	1.85
L24P	2.89
A9K	2.31
N19R	1.76

Item `I16E` has what recorded protein stability index?
1.88

Reported protein stability index for `R20V` : what is it?
1.9

Fill blank: measured protein stability index of the variant `I15W` is ____.
2.34
